melting point by entry:

Cc1nc2c(C=Cc3ccccc3)cccn2c1N=O | 158 to 160 °C
O=C(Nc1ccc(F)cc1)c1ccccn1 | 100 to 103 °C
Cc1ccccc1-c1cccc(/C=C/C(=O)Nc2ccc(CN3CCCCC3)cc2)c1 | 185 to 187 °C
CC(O)CNc1nc(C2C(=O)Nc3ccc(Br)cc32)c2cn(C)nc2n1 (stereo not given) | 298 to 301 °C

**Q:** Quick one: melting point for "Oc1c(Cl)cc(Cl)cc1Cc1cc(F)cc(Cc2cc(Cl)cc(Cl)c2O)c1O" ?
**A:** 168 °C

**Q:** Quick one: melting point for "CC(C)C[C@H](NC(=O)OCc1ccccn1)C(=O)N[C@@H](C(C)C)[C@H](O)c1c(-c2ccccc2)c1=O" ?
**A:** 52 to 59 °C

**Q:** Quick one: melting point for "CCCOc1ccc(C(=O)CBr)cc1" ?
**A:** 36 to 38 °C

====

test readout: melting point

O=C1c2ccccc2CN1c1ccc(CCN2CCN(c3nsc4ccccc34)CC2)cc1 | 176 °C
O=c1c(Cc2ccccc2)coc2cc(OS(=O)(=O)C(F)(F)F)ccc12 | 56 to 58 °C
Cc1ccc2nc(N3CCN(c4c(Cl)cncc4Cl)CC3)[nH]c2c1 | 251 to 254 °C
Cc1ncc(CN2CC=C(c3ccccc3)CC2)c(N)n1 | 165 to 166 °C
COc1ccc(N(CCC(=O)N(C)CC(=O)O)C(=O)c2ccc(Cl)cc2)cc1 | 129 to 131 °C

**Q:** Quick one: melting point for "C=CC(=O)N1C/C(=C\c2ccc([N+](=O)[O-])cc2)C(=O)/C(=C/c2ccc([N+](=O)[O-])cc2)C1" ?
**A:** 170 to 172 °C

**Q:** Quick one: melting point for "CCOC(=O)c1c(Nc2ccccc2N)c(C)cn1C" ?
**A:** 90 °C

**Q:** Quick one: melting point for "CCCN(CCC)C1Cc2cc3c(cc2C1)C(=O)N(Cc1ccc(S(N)(=O)=O)cc1)C3=O" ?
**A:** 190 to 194 °C

**Q:** Quick one: melting point for "Cc1cccc(Nc2nc(N)ncc2S(=O)(=O)NC(C)(C)C)c1" ?
**A:** 174 to 178 °C

**Q:** Quick one: melting point for CSc1ccc(C(CC2CCCC2)C(=O)O)cc1C(F)(F)F (stereo not given) ?
**A:** 105 to 106 °C

**Q:** Quick one: melting point for "CCOC(=O)CN1C(=O)c2cccc3cccc(c23)C1=O" ?
**A:** 160 to 162 °C

**Q:** Quick one: melting point for "O=C(Nc1ccc(-c2c[nH]c(=O)cn2)cc1)c1ccccc1" ?
**A:** > 300 °C

**Q:** Quick one: melting point for CN1CCC(OC2c3ccc(Br)cc3CCn3cc(-c4ccccc4)nc32)CC1 (stereo not given) ?
**A:** 92 °C

**Q:** Quick one: melting point for "CC(C)(C)c1ccnc(-c2cc(C(C)(C)C)ccn2)c1" ?
**A:** 159 to 160 °C

**Q:** Quick one: melting point for "Cc1cc(C)n(-c2nc(Nc3ccc(Cl)cc3)cc(N3CCOCC3)n2)n1" ?
**A:** 186 to 187 °C

**Q:** Quick one: melting point for "Fc1ccc(N2CCC(N3CCN(c4cccc5cccnc45)CC3)CC2)c2ncccc12" ?
**A:** 224 °C

**Q:** Quick one: melting point for NC1=NC(N)(c2ccc(S(=O)(=O)NN3CCOCC3)cc2)NC=N1 (stereo not given) ?
**A:** > 260 °C

All values here come from a melting point compilation (Tetko et al.; mined from patent text by program, amines drawn as free bases though some values may be those of a salt).
